Target: T1, SNX17_(FERM-CT) (amino acids 109-470) (UniProt Q15036 109-470)
T1 sequence (looked up): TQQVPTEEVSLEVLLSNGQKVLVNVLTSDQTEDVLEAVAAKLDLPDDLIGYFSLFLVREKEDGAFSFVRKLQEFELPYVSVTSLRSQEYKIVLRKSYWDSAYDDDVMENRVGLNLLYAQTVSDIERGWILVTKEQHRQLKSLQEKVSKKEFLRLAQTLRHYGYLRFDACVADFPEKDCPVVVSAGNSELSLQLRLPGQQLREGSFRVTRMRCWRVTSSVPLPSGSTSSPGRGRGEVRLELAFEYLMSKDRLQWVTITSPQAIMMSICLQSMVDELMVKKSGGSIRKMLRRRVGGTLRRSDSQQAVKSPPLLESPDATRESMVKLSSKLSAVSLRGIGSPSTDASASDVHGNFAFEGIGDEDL
Test: fluorescence polarisation
Settings: both partners purified
Where no end group is shown, it is not given here. The star is where a group is joined. 5FAM = O=C1OC2(c3ccc(O)cc3Oc3cc(O)ccc32)c2ccc(C(=O)*)cc21
Measured Property: pKd
Please treat pKd as minus the base-10 logarithm of the molar concentration.

Check out these entries, answers already filled in.
Binder	pKd
5FAM-KWDTGENPIYKSAV (also called ITGB1 membrane-proximal site; source: synthetic peptide (GenScript)) [Peptide ITGB1_(P-14mer)]	4.14
5FAM-QQNGYENPTYKFFE (source: synthetic peptide (GenScript)) [Peptide APP_(14mer)]	4.72

So, 5FAM-AVTTVVNPKYEGK (also called ITGB1 distal site; source: synthetic peptide (GenScript)) [Peptide ITGB1_(D-13mer)] ? Its pKd was 3.90

So, 5FAM-KLITYDNPAYEGID (source: synthetic peptide (GenScript)) [Peptide L2_(14mer)] ? Its pKd was 6.22

So, 5FAM-MNVEIGNPTYKMYE (source: synthetic peptide (GenScript)) [Peptide LRP1_(14mer)] ? Its pKd was 5.66

Numbers sourced from paper PMC11772769.
